- assay: In vivo pharmacokinetics in mice
- appliedConditions: mouse, plasma, oral, 100mg/kg, dose escalation (Fig. 1G)
metric: AUC(0-t) (ng·h/mL)
Respond with the bare value in ng·h/mL.

# lookup: AUC(0-t) of Nc1nnc(-c2ccccc2O)cc1-c1ccc(N2CCC(N3CCC(c4ccc(OC5CCC(=O)NC5=O)cc4)CC3)CC2)cc1 (stereo not shown) [AU-24118]
32200

###

- assay: In vivo pharmacokinetics in mice
- appliedConditions: mouse, plasma, po; CD1 Mice, P.O. 30mg/kg; read-out: Cmax/C0
metric: Cmax (ng/mL)
Respond with the bare value in ng/mL.

# lookup: Cmax of Nc1nnc(-c2ccccc2O)cc1-c1ccc(N2CCC(N3CCC(c4ccc(OC5CCC(=O)NC5=O)cc4)CC3)CC2)cc1 (stereo not shown)
1030

###

- assay: In vivo pharmacokinetics in mice
- appliedConditions: mouse, plasma, oral, 10mg/kg, dose escalation (Fig. 1G)
metric: AUC(0-t) (ng·h/mL)
Respond with the bare value in ng·h/mL.

# lookup: AUC(0-t) of Nc1nnc(-c2ccccc2O)cc1-c1ccc(N2CCC(N3CCC(c4ccc(OC5CCC(=O)NC5=O)cc4)CC3)CC2)cc1 (stereo not shown) [AU-24118]
4930

###

- assay: In vivo pharmacokinetics in mice
- appliedConditions: mouse, plasma, iv; CD1 Mice, I.V. 1mg/kg; read-out: Beta t1/2 (converted)
metric: half-life (h)
Respond with the bare value in h.

# lookup: half-life of Nc1nnc(-c2ccccc2O)cc1-c1ccc(N2CCC(N3CCC(c4ccc(OC5CCC(=O)NC5=O)cc4)CC3)CC2)cc1 (stereo not shown)
4.76

###

- Test system: 22Rv1-wild type (WT) cells
- assay: CellTiter-Glo cell viability assay in 22Rv1 wild type cells
- Type: cell-based, human
- appliedConditions: Homo sapiens, 22Rv1, 120 h, Fig. 4G/H; 22Rv1 WT; 5 d; without zosuquidar
- Experimental: Cells were seeded onto 96-well plates in appropriate culture media and allowed to adhere overnight prior to treatment. The next day, a nine-point serial dilution of the compounds was prepared and added to the plates. […] The signal (luminescence) from each well was determined using an Infinite M1000 Pro plate reader (Tecan). Relative viability was determined by dividing the signal from each well by the average of the control condition in each experiment. […]
metric: pIC50
Scale note: pIC50 = -log10(concentration in M).

Recorded pIC50 for Cc1ncsc1-c1ccc([C@H](C)NC(=O)[C@@H]2C[C@@H](O)CN2C(=O)[C@@H](NC(=O)CN2CCN(c3cc(-c4ccccc4O)nnc3N)CC2)C(C)(C)C)cc1 with 22Rv1-wild type (WT) cells, please?
8.64

###

- assay: In vivo pharmacokinetics in mice
- appliedConditions: mouse, plasma; mice, oral, 30mg/kg, dose escalation (Fig. 1G)
metric: AUC(0-t) (ng·h/mL)
Respond with the bare value in ng·h/mL.

# lookup: AUC(0-t) of Nc1nnc(-c2ccccc2O)cc1-c1ccc(N2CCC(N3CCC(c4ccc(OC5CCC(=O)NC5=O)cc4)CC3)CC2)cc1 (stereo not shown)
14700

###

- assay: Toxicity and maximum tolerated dose in tumor-free CB17 SCID mice
- Type: in vivo
- appliedConditions: mouse, in vivo, oral; CB17 SCID mice, dosed three times weekly
metric: MTD (mg/kg)
Respond with the bare value in mg/kg.

# lookup: MTD of Nc1nnc(-c2ccccc2O)cc1-c1ccc(N2CCC(N3CCC(c4ccc(OC5CCC(=O)NC5=O)cc4)CC3)CC2)cc1 (stereo not shown)
15
